Target: Hypoxia-inducible factor 1-alpha (Homo sapiens) (UniProt Q16665)
Sequence (Q16665 whole entry, looked up): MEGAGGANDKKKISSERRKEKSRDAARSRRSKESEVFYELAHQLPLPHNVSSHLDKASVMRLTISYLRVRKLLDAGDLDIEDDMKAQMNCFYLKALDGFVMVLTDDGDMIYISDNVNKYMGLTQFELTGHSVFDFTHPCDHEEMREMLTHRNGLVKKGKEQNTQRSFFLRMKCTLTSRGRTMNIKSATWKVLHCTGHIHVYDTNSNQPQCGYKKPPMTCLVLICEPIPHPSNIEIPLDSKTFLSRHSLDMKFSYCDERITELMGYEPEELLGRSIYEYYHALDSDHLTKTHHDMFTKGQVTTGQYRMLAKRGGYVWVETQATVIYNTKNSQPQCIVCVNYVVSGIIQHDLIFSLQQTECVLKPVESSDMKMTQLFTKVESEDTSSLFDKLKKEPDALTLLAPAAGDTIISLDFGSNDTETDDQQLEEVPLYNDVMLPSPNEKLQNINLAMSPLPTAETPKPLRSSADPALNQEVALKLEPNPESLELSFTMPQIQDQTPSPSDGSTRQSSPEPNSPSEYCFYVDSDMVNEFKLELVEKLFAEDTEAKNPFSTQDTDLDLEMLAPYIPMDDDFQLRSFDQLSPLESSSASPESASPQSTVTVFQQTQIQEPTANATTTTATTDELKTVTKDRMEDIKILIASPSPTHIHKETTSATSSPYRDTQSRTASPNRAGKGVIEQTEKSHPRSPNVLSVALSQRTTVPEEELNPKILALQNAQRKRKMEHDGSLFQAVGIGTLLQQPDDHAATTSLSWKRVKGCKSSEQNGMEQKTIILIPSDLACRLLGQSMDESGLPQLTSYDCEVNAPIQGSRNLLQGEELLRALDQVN
Experiment: HIF-2a and HIF-1a reporter inhibition panel, dose response, selectivity assay for HIF-2a inhibitor project, cell-based, luminescence (AID 651581)
Conditions: HIF-1a, mean of runs
The source made the active and inactive calls. The rule behind the calls is not given here.
Pick one and only one: true (1) for active, false (0) for inactive

Dear colleague, could you share the recorded outcome for `NC(=O)COC(=O)CCCSc1nc2ccccc2s1` when you have a moment?
false (0)

Recorded test call requested for `O=C(O)COc1ccc2oc3ccccc3c2c1`
true (1)

What is the recorded call for this molecule in the test? `CCN(CC)S(=O)(=O)c1ccc(NC(=O)c2cccnc2Cl)c(NC(=O)c2cccnc2Cl)c1`
false (0)

Could you now look at the following molecule, please?
Identify the outcome logged in this assay for the molecule shown: `O=C1C=CC(=O)N1c1ccccc1N1C(=O)C=CC1=O`
false (0)

###

# pIC50 per record follows
Molecular target: Endothelial PAS domain-containing protein 1 (Homo sapiens) (UniProt Q99814)
Experiment: HIF-2a and HIF-1a reporter inhibition panel, dose response, selectivity assay for HIF-2a inhibitor project, cell-based, luminescence (AID 651581)
Conditions: HIF-2a, run 2
pIC50: −log10 of the molar value.

Completed entries (count: 3):
Which pIC50 value is on record for `CC(C)(C)c1ccc(/C=N/Nc2ccc(C(=O)O)cc2)cc1` ?
> 6.72

Item under review: `COc1ccc(/C=N\n2nnc3ccccc32)cc1` . Reported pIC50?
> 4.52

Look at this compound and give its reported pIC50. `Nc1ccc(-c2cc3ccccc3c(=O)o2)cc1`
> 6.00

---
Which pIC50 is reported for this compound? `Cc1nc2cc(-c3cccc(F)c3)nn2c(C)c1CCC(=O)N1CCC2(CC1)OCCO2`
5.89

Name the recorded pIC50 for `COC(=O)c1cccc(-c2noc(-c3ccccc3F)n2)c1` .
> 5.00

Could you tell me which pIC50 is on file for `O=C(NNc1nc2ccccc2o1)c1ccccc1` ?
5.22

// pIC50 lookup, key: `C/C(=N/NC(=O)c1cc(C2CC2)[nH]n1)c1cccs1`
> 4.52

What measured pIC50 goes with `CCOC(=O)NC(=O)COC(=O)CCCSc1nc2ccccc2s1` ?
4.99

Consider the compound `O=C(O)c1ccc2nc(-c3ccccc3)sc2c1` and give its measured pIC50.
< 4.00

Form field: reported pIC50 of `Cc1ccc(/C=N/Nc2cccc(C(=O)O)c2)s1`
< 4.00

###

Quick reference: pIC50 of the listed items.
Target: Endothelial PAS domain-containing protein 1 (Homo sapiens) (UniProt Q99814)
Assay: HIF-2a and HIF-1a reporter inhibition panel, dose response, selectivity assay for HIF-2a inhibitor project, cell-based, luminescence (AID 651581)
Settings: HIF-2a, run 1
pIC50: −log10 of the molar value.

Fill in the recorded pIC50 for this molecule, with Endothelial PAS domain-containing protein 1 (Homo sapiens) (UniProt Q99814) as test system: `Cc1csc(NC(=O)CCc2c(C)nc3cc(-c4ccc(Cl)cc4)nn3c2C)n1`
> 6.00

Reported pIC50 for Endothelial PAS domain-containing protein 1 (Homo sapiens) (UniProt Q99814), given `C/C(=N\OCc1cccc(C(=O)O)c1)c1ccc(Cl)cc1` ?
> 5.00

Further cases:
State its pIC50 on Endothelial PAS domain-containing protein 1 (Homo sapiens) (UniProt Q99814): `O=C(O)c1ccc(N/N=C/c2ccc3ncccc3c2)cc1`
> 4.52

###

Target: Endothelial PAS domain-containing protein 1 (Homo sapiens) (UniProt Q99814)
Assay: HIF-2a and HIF-1a reporter inhibition panel, dose response, selectivity assay for HIF-2a inhibitor project, cell-based, luminescence (AID 651581)
Conditions: HIF-2a, run 1
pIC50: −log10 of the molar value.
Lab note: anything with pIC50 at or over 5 counts as true; the rest go in false.

# bool: pIC50 of `O=C(Nc1sc2c(c1C(=O)O)CCC2)c1ccccc1Cl` >= 5
false

Continuing:
Answer whether pIC50 of `O=C(O)COc1ccc(-c2nccc(-c3ccccn3)n2)cc1` is greater than or equal to 5.
true

In plain terms: is recorded pIC50 at least 5 for `O=C(Nc1ccc(NC(=O)c2cccs2)cc1)c1ccc2c(c1)OCCO2` ?
false

Hello, I need to know if `CCC(=O)Nc1cccc(C(=O)c2ccc(C)c(C)c2)c1` has measured pIC50 not below 5. Thanks!
false

Please check the record `CCOC(=O)Cc1csc(N/N=C/c2ccc(C(F)(F)F)cc2)n1` and state if its pIC50 is at or above 5.
false

Check this compound for pIC50 at or above 5: `O=Cc1cn(Cc2cccc([N+](=O)[O-])c2)c2ccccc12`
true

Determine whether measured pIC50 meets or exceeds 5 for `Cc1cc(C)cc(C(=O)NC(=S)Nc2ccc(-c3cc4ccccc4oc3=O)cc2)c1`
false

Determine whether measured pIC50 meets or exceeds 5 for Cc1nc2cc(-c3cccc(F)c3)nn2c(C)c1CCC(=O)NC(C)c1ccc2c(c1)OCCO2 (centres undefined)
true

Check this compound for pIC50 at or above 5: `O=C(CCCc1ccccc1)Nc1cccc(C(=O)O)c1`
false

###

Measured pIC50 values are reported for all entries that follow.
Target: Endothelial PAS domain-containing protein 1 (Homo sapiens)
Test: HIF-2a and HIF-1a reporter inhibition panel, dose response, selectivity assay for HIF-2a inhibitor project, cell-based, luminescence (AID 651581)
Details: HIF-2a, run 1
The meaning of pIC50 here: minus log10 of the concentration in molar units.

Before answering, review these 6 worked examples.
Name the reported pIC50 value associated with the compound `Cc1ccc(C(C)C)c(OCc2ccc(-c3nnco3)cc2)c1`
5.72

Fill in the blank: the reported pIC50 of `COc1cc(OC)cc(-c2nnc(Nc3nc4c(F)cccc4s3)o2)c1` is ____.
5.39

// returns reported pIC50 for input `Cc1nnnn1/C(=C\c1ccccc1)C(=O)OCC(=O)Nc1cccc(S(=O)(=O)N(C)C)c1`
5.08

Quick one: pIC50 of `CCOC(=O)CNC(=O)CSc1nnc(NC(=O)c2ccc(C)cc2)s1` ?
4.93

Quick one: pIC50 for `CCOC(=O)Cc1csc(NC(=S)NC(=O)c2ccc(F)cc2)n1` ?
5.72

Any idea what pIC50 was measured for `Cc1c(CCC(=O)N2CCC[C@H]2C(=O)O)c(=O)oc2cc3oc4c(c3cc12)CCCC4` ?
6.35

Next:
I am curious: what pIC50 value has been reported for `CC(C)C[C@@H](N)c1nnc(SCC(=O)c2ccc(Cl)cc2)o1` ?
5.39

# get_value(readout='pIC50', item= `COCCn1c(C)cc(C(=O)CSc2nnc(C)s2)c1C` )
5.19

###

Target: Endothelial PAS domain-containing protein 1 (Homo sapiens)
Experiment: HIF-2a and HIF-1a reporter inhibition panel, dose response, selectivity assay for HIF-2a inhibitor project, cell-based, luminescence (AID 651581)
Details: HIF-2a, run 2
Overview of reported pIC50 across a group of molecules:
pIC50 (log units): -log10 of the concentration in mol/L.

Below are worked cases with known answers.
Fill in: pIC50 of `N=c1nc(SCCC(=O)O)ss1` is ___
5.19

Suppose we examine the molecule `O=C(O)c1cccc(N/N=C/c2cccs2)c1` ; what pIC50 value has been reported?
5.23

pIC50 lookup needed for `O=C1C=CC(=O)N1c1ccccc1N1C(=O)C=CC1=O` , thanks.
4.88

Could you now consider this next molecule?
Which pIC50 is listed for `O=C(Nc1ccc(NC(=O)c2ccco2)cc1)c1ccc2c(c1)OCCO2` ?
5.13

###

Molecular target: Endothelial PAS domain-containing protein 1 (Homo sapiens) (UniProt Q99814)
Test: HIF-2a and HIF-1a reporter inhibition panel, dose response, selectivity assay for HIF-2a inhibitor project, cell-based, luminescence (AID 651581)
Details: HIF-2a PANC, run 1
measurement.type: IC50

Give its IC50 value. Item: `O=C(NNc1nc2ccccc2o1)c1ccccc1`
> 99 µM

Give the measured IC50 of `CC(C)(C)c1ccc(-c2noc(CCC(=O)NCc3ccco3)n2)cc1` .
< 3 µM

# lookup: IC50 of C=C1C(=O)OC2CC3(C)OC3C3OC3C3=CC(OC3=O)C12 (stereo not given)
> 99 µM

IC50 for `C/C(=N/NC(=O)c1cc(C2CC2)[nH]n1)c1cccs1` ?
> 99 µM

Shift focus to the following entry.
GET /values?readout=IC50&item= `O=C(Nc1sc2c(c1C(=O)O)CCC2)c1ccccc1Cl`
> 99 µM

###

Target: Endothelial PAS domain-containing protein 1 (Homo sapiens)
Test: HIF-2a and HIF-1a reporter inhibition panel, dose response, selectivity assay for HIF-2a inhibitor project, cell-based, luminescence (AID 651581)
Conditions: HIF-2a, mean of runs
Activity calls are given as the source filed them. How the calls were made is not given here.
Returns: one label drawn from 1 (active), -1 (inactive)

Record excerpt, results attached:
Given `COC(=O)COc1ccc(-c2nccc(-c3ccccn3)n2)cc1` , state the outcome it received in this test.
1

Lab log entry: `COc1ccc(CNC(=O)c2nc(S(=O)(=O)Cc3ccccc3)ncc2Cl)cc1` — outcome as called in the assay?
1

Which outcome did this test record for the molecule CCOc1ccc(C(=O)Nc2nnc(SCC(=O)NCC3CCCO3)s2)cc1 (stereo not drawn) ?
-1

What did this assay record as the result for `O=C(Nc1ccc(NC(=S)NC(=O)c2ccco2)cc1)c1ccc(Br)cc1` ?
1

New cases:
Assay outcome for `O=C(O)COc1ccc(-c2nccc(-c3ccccn3)n2)cc1` : what was it?
1

What did this assay record as the result for `O=C(Nc1cc(S(=O)(=O)N2CCOCC2)ccc1Cl)c1cc([N+](=O)[O-])ccc1Cl` ?
-1

Given `O=C1C=C(c2ccc(Cl)cc2)C(=O)N1Nc1ccccc1` , state the outcome it received in this test.
1

Hi, do you know how `Cc1ccc(S(=O)(=O)ON2C(=O)c3ccccc3C2=O)c(C)c1` came out in this test?
1

What did the test return for Cc1nc2cc(-c3ccccc3)nn2c(C)c1CCC(=O)NC(C)c1ccc2c(c1)OCCO2 (stereo not drawn) ?
1

Assay result, entry `COc1ccc(OCc2cccc(C(=O)Nn3cc([N+](=O)[O-])cn3)c2)cc1` — outcome?
-1

Assay result, entry `CCOC(=O)C1CCN(Cc2cc(=O)oc3c(C)c(C)ccc23)CC1` — outcome?
1

What classification did `CC(C)(C)c1ccc(-c2noc(CCC(=O)NCc3ccco3)n2)cc1` end up with in this test?
1

Look up the recorded call for `C/C(=N\NC(=O)c1n[nH]c2c1CCC2)c1cccs1` in this test.
1

Recorded call for `CC(C)(C)c1ccc(-c2noc(CCC(N)=O)n2)cc1` ?
1
